Biological target: Orexin type 1 (OX1R) receptor (Homo sapiens)
Construct: expressed in transfected cells; host or cells: CHO cells (G418 selection)
Sequence (O43613 1-425): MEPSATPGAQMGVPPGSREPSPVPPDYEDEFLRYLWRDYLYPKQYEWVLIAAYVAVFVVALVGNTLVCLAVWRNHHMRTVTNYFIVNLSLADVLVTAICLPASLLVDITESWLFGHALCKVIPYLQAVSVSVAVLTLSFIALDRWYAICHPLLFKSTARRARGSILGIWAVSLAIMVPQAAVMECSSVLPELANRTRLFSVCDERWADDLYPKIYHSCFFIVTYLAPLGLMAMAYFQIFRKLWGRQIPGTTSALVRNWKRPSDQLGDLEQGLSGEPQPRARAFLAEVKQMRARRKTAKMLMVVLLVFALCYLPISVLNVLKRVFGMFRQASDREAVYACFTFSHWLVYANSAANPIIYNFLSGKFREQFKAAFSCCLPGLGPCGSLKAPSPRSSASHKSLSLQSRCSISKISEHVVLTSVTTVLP
Experiment: In vitro orexin antagonism assay: intracellular calcium measurement (FLIPR), orexin-A 3 nM as agonist
Format: cell-based
Details: read-out: OX1R, % Inh. @ 1 uM
Result type: inhibition at 1 µM (%)

Some solved entries appear below for comparison.
Compound	Target or test system	Result type	Value
O=C(c1nc2ccccn2c1-c1ccccn1)N1CCC[C@H]1Cn1cc(-c2ccccn2)cn1 [Example 181]	Orexin type 1 (OX1R) receptor (Homo sapiens)	inhibition at 1 µM	91
C[C@@]1(Cn2ccc(-c3ccccn3)n2)CCCN1C(=O)c1nn2ccccc2c1-c1ccccc1 [Example 150]	Orexin type 1 (OX1R) receptor (Homo sapiens)	inhibition at 1 µM	97

(I) O=C(c1c(-c2ccc(F)cc2)nn2c1COCC2)N1CCC[C@H]1Cn1ccc(-c2ccc(F)cc2)n1 [Example 54]
(II) O=C(c1c(-c2ccccc2)nc2cnccn12)N1CCC[C@H]1COc1ccc(C(F)(F)F)nc1 [Example 39]
# input Could you check which of I and II has a smaller value for inhibition at 1 µM? // caller expects the label of the chosen entry
# output II

---

biological target: human k-opioid receptor (kOR) (Homo sapiens, UniProt P41145); construct: expressed in transfected cells; host or cells: RBL cells (membrane homogenates); assay: Human k-opioid (KOP) receptor (agonist radioligand [3H]U-69593) binding assay, transfected RBL cell membranes; settings: second value of IC50/Ki cell
Sequence (P41145 whole entry): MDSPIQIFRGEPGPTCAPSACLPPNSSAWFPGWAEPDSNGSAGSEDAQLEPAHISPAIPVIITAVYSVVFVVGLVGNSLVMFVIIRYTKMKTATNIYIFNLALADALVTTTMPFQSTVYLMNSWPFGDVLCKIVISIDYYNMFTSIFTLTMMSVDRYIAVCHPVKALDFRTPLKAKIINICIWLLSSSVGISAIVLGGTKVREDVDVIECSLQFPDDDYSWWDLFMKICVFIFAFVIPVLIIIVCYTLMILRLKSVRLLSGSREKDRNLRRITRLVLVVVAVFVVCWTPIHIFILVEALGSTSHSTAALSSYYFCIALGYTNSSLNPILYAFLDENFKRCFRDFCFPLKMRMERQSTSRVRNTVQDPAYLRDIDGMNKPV
pKi: −log10 of the molar value.
Result type: pKi

Some solved entries appear below for comparison.
O=C(c1c(-c2ccccc2)nc2cc(F)ccn12)N1CCC[C@H]1Cn1ccc(-c2ccc(F)cc2)n1 6.49
O=C(c1c(-c2ccc(F)cc2)nn2ccccc12)N1CCC[C@H]1Cn1ccc(-c2ccccc2)n1 6.43
C[C@@H]1CCCN(C(=O)c2c(-c3ccccc3)nn3c2COCC3)[C@@H]1CNc1ccc(C(F)(F)F)cn1 6.10

(P) O=C(c1c(-c2ccccc2F)nn2ccccc12)N1[C@H](Cn2ccc(-c3ccc(F)cn3)n2)C[C@@H]2C[C@@H]21
(Q) O=C(c1c(-c2ccccc2)nc2cc(C(F)(F)F)ccn12)N1CCC[C@H]1Cn1ccc(-c2ccc(F)cn2)n1
# input pKi comparison. Which is larger, P or Q ? // caller expects the label of the chosen entry
# output Q
(Q: 6.92, P: 6.30)

(I) O=C(c1c(-c2ccccc2)nc2cc(C(F)(F)F)ccn12)N1CCC[C@H]1Cn1ccc(-c2ccc(F)cc2)n1
(II) C[C@@H]1CCCN(C(=O)c2c(-c3ccccc3)nc3ncccn23)[C@@H]1CNc1ccc(C(F)(F)F)cn1
# input pKi comparison. Which is larger, I or II ? // caller expects the label of the chosen entry
# output I
(I: 7.51, II: 6.40)

(a) O=C(c1c(-c2ccccc2)nc2ccc(F)cn12)N1CCC[C@H]1Cn1cc(-c2ccccc2)cn1
(b) CCc1cnc(NC[C@@H]2[C@H](C)CCCN2C(=O)c2c(-c3ccccc3)nn3ccccc23)nc1
# input Could you check which of a and b has a smaller value for pKi? // caller expects the label of the chosen entry
# output b
(b: 6.07, a: 7.11)

(a) O=C(c1c(-c2ccccc2)nn2ccccc12)N1CCC[C@H]1COc1ccc(C(F)(F)F)cn1
(b) O=C(c1c(-c2ccccc2F)nn2ccccc12)N1[C@H](Cn2ccc(-c3ccc(F)cc3)n2)C[C@@H]2C[C@@H]21
# input pKi comparison. Which is larger, a or b ? // caller expects the label of the chosen entry
# output b
(b: 7.00, a: 5.72)

(A) [2H]C1([2H])CC[C@@]([2H])(Cn2ccc(-c3ccc(F)cc3)n2)N1C(=O)c1c(-c2ccccc2)nc2ccc(F)cn12
(B) O=C(c1c(-c2ccccc2)nc2ccc(F)cn12)N1CCC[C@H]1Cn1ccc(-c2ccc(F)cc2)n1
# input Could you check which of A and B has a smaller value for pKi? // caller expects the label of the chosen entry
# output A

---

target: Orexin type 1 (OX1R) receptor (Homo sapiens, UniProt O43613); construct: expressed in transfected cells; host or cells: CHO cells (G418 selection); assay: In vitro orexin antagonism assay: intracellular calcium measurement (FLIPR), orexin-A 3 nM as agonist; type: cell-based; conditions: read-out: OX1R, % Inh. @ 1 uM
Result type: inhibition at 1 µM (%)

Compound	Units label	inhibition at 1 µM
O=C(c1nn2c(c1-c1ccccn1)OCCC2)N1CCC[C@H]1Cn1cc(-c2ccccn2)cn1 [Example 197]	%	97

(I) O=C(c1c(-c2ccccc2)nc2ncccn12)N1CCC[C@H]1CNc1ccc(F)cn1 [Example 31]
(II) O=C(c1c(-c2ccccc2F)nn2c1COCC2)N1CC[C@H]1Cn1ccc(-c2ccc(F)cc2)n1 [Example 100]
(III) O=C(c1c(-c2ccc(F)cc2)nn2ccccc12)N1CCC[C@H]1COc1ccc(C(F)(F)F)cn1 [Example 43]
# input Put the items in sequence by inhibition at 1 µM, from largest down. Hello, could you send the labels back in the order asked? Thank you.
# output III, I, II
(III: 93.1%, I: 4.7%, II: -2%)

---

Target: human orexin-2 receptor (OX2R) (Homo sapiens, UniProt O43614)
Construct: expressed in transfected cells; host or cells: CHO cells (G418 selection)
Sequence (O43614 1-444): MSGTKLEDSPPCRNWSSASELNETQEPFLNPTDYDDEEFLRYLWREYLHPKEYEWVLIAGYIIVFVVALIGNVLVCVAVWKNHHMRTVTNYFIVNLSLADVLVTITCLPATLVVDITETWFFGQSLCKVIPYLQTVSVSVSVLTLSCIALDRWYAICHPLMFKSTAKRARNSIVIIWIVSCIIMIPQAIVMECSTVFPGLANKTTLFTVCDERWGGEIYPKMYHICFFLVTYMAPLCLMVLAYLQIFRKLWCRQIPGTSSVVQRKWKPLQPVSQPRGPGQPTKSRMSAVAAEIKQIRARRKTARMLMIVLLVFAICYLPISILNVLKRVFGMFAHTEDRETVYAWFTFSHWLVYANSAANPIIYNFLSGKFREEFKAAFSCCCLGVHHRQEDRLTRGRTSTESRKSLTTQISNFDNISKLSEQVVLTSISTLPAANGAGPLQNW
Test: In vitro orexin antagonism assay: intracellular calcium measurement (FLIPR), orexin-A 3 nM as agonist
Assay type: cell-based
Settings: @ 1 uM
Result type: OX2R, % Inh. @ 1 uM (%)
Numbers only; they are read as %.

Molecule	OX2R, % Inh. @ 1 uM, %
O=C(c1nn2c(c1-c1ccccn1)COCC2)N1CCC[C@H]1Cn1cc(-c2ccc(F)cn2)cn1 [Example 198]	50

# input So what's the measured OX2R, % Inh. @ 1 uM for this one? O=C(c1c(-c2ccc(F)cc2)nc2ccccn12)N1CCC[C@H]1Cn1ccc(-c2ccc(F)cc2)n1 [Example 61]
# output 73

# input So what's the measured OX2R, % Inh. @ 1 uM for this one? O=C(c1c(-c2ccccc2)nn2c1COCC2)N1CCC[C@H]1Cn1ccc(-c2ccc(F)cc2)n1 [Example 57]
# output 52

# input So what's the measured OX2R, % Inh. @ 1 uM for this one? O=C(c1nn2c(c1-c1ccccn1)COCC2)N1CCC[C@H]1COc1ccc(C(F)(F)F)cn1 [Example 223]
# output 21

# input So what's the measured OX2R, % Inh. @ 1 uM for this one? O=C(c1c(-c2ccccc2F)nn2ccccc12)N1CCC[C@H]1Cn1ccc(-c2ccc(F)cc2)n1 [Example 63]
# output 100

# input So what's the measured OX2R, % Inh. @ 1 uM for this one? O=C(c1c(-c2ccccc2)nn2ccccc12)N1CCC[C@H]1Cn1ccc(-c2ccc(F)cc2)n1 [Example 59]
# output 99

# input So what's the measured OX2R, % Inh. @ 1 uM for this one? O=C(c1nn2c(c1-c1ccccn1)COCC2)N1CCC[C@H]1Cn1ccc(-c2ccc(F)cn2)n1 [Example 196]
# output 39

# input So what's the measured OX2R, % Inh. @ 1 uM for this one? O=C(c1c(-c2ccc(F)cc2)nn2ccccc12)N1CCC[C@H]1Cn1ccc(-c2ccc(C(F)(F)F)cc2)n1 [Example 56]
# output 12

# input So what's the measured OX2R, % Inh. @ 1 uM for this one? O=C(c1c(-c2ccccc2F)nn2ccccc12)N1CCC[C@H]1Cn1ccc(-c2ccc(F)cn2)n1 [Example 90]
# output 84

# input So what's the measured OX2R, % Inh. @ 1 uM for this one? O=C(c1c(-c2ccccc2F)nc2ccccn12)N1CCC[C@H]1Cn1ccc(-c2ccc(F)cc2)n1 [Example 62]
# output 85.23

# input So what's the measured OX2R, % Inh. @ 1 uM for this one? O=C(c1c(-c2ccccc2F)nn2c1COCC2)N1CCC[C@H]1Cn1ccc(-c2ccc(F)cc2)n1 [Example 66]
# output 68

# input So what's the measured OX2R, % Inh. @ 1 uM for this one? O=C(c1nn2c(c1-c1ccccn1)COCC2)N1CCC[C@H]1Cn1ccc(-c2ccc(F)cn2)n1 [Example 212]
# output 46

# input So what's the measured OX2R, % Inh. @ 1 uM for this one? O=C(c1c(-c2ccccc2)nn2ccccc12)N1CCC[C@H]1Cn1ccc(-c2ccc(C(F)(F)F)cc2)n1 [Example 60]
# output 37

# input So what's the measured OX2R, % Inh. @ 1 uM for this one? O=C(c1c(-c2ccc(F)cc2)nn2ccccc12)N1CCC[C@H]1Cn1ccc(-c2ccc(F)cc2)n1 [Example 55]
# output 93

# input So what's the measured OX2R, % Inh. @ 1 uM for this one? O=C(c1nc2ccccn2c1-c1ccccc1)N1CCC[C@H]1Cn1ccc(-c2ccc(F)cn2)n1 [Example 123]
# output 42
